The measured values listed here are drawn from patent US12291519B2.

system name: human Gal-1 (hGal-1)
Sequence (P09382 2-135 limits assumed): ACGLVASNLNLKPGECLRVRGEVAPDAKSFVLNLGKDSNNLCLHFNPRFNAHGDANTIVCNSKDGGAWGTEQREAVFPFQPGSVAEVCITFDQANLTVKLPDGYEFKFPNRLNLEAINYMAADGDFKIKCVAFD
assay text: Competitive binding assay: biotinylated hGal-1 binding to microplate-adsorbed asialofetuin (ASF)
assay conditions: Activity on hGal-1; binding of biotinylated hGal-1 to ASF-coated plates; mean values
Flag rule - IC50 less than 700 nM flags satisfied; the remaining entries get not satisfied.

Consider the worked cases shown below.
compound="CO[C@@H]1[C@@H](n2cc(-c3cc(F)c(Br)c(F)c3)nn2)[C@@H](O)[C@@H](CO)O[C@H]1C(=O)N(c1cc(Cl)cc(C#N)c1)[C@H]1CCCC[C@@H]1O [Example 154]" classification="not satisfied"
compound="CO[C@@H]1[C@@H](n2cc(-c3cc(F)c(F)c(F)c3)nn2)[C@@H](O)[C@@H](CO)O[C@H]1C(=O)N(c1cc(C)cc(F)c1)[C@H]1CCCC[C@@H]1O [Example 119]" classification="not satisfied"

**Query** IC50 strictly < 700 nM for this compound? CO[C@@H]1[C@@H](n2cc(-c3cc(F)cc(Br)c3)nn2)[C@@H](O)[C@@H](CO)O[C@H]1C(=O)N(c1cc(F)cc(Cl)c1)[C@H]1CCCC[C@@H]1O [Example 147]
**Result** satisfied

**Query** And for CO[C@@H]1[C@@H](n2cc(-c3cc(F)c(F)c(F)c3)nn2)[C@@H](O)[C@@H](CO)O[C@H]1C(=O)N(c1ccc2nc(C)sc2c1)[C@H]1CCCC[C@@H]1O [Example 94] ?
**Result** satisfied

**Query** Queued: CO[C@@H]1[C@@H](n2cc(-c3cc(C)cc(F)c3)nn2)[C@@H](O)[C@@H](CO)O[C@H]1C(=O)N(c1cc(Cl)cc(C#N)c1)[C@H]1CCCC[C@@H]1O [Example 190]
**Result** satisfied

**Query** Please give the result for CO[C@@H]1[C@@H](n2cc(-c3cc(F)c(F)c(F)c3)nn2)[C@@H](O)[C@@H](CO)O[C@H]1C(=O)N(c1cc(Cl)cc(Cl)c1)[C@H]1CCCC[C@@H]1O [Example 60] too.
**Result** satisfied

**Query** Note, next up: CO[C@@H]1[C@@H](n2cc(-c3cc(F)c(Cl)c(Cl)c3)nn2)[C@@H](O)[C@@H](CO)O[C@H]1C(=O)N(c1cc(Cl)cc(Cl)c1)[C@H]1CCCC[C@@H]1O [Example 166]
**Result** not satisfied

**Query** Could you do the same for CO[C@@H]1[C@@H](n2cc(-c3ccc(C#N)c(F)c3)nn2)[C@@H](O)[C@@H](CO)O[C@H]1C(=O)N(c1cc(C)cc(C#N)c1)[C@H]1CCCC[C@@H]1O [Example 206] , please?
**Result** not satisfied

**Query** Moving on to COc1cc(C#N)cc(N(C(=O)[C@@H]2O[C@H](CO)[C@H](O)[C@H](n3cc(-c4cc(F)cc(Cl)c4)nn3)[C@H]2OC)[C@H]2CCCC[C@@H]2O)c1 [Example 141]
**Result** not satisfied

**Query** Follow-up entry: CO[C@@H]1[C@@H](n2cc(-c3ccc(Cl)c(Cl)c3)nn2)[C@@H](O)[C@@H](CO)O[C@H]1C(=O)N(c1cc(Cl)cc(Cl)c1)[C@H]1CCCC[C@@H]1O [Example 189]
**Result** satisfied

====

system name: human Gal-1 (hGal-1)
assay text: Competitive binding assay: biotinylated hGal-1 binding to microplate-adsorbed asialofetuin (ASF)
assay conditions: Activity on hGal-1; binding of biotinylated hGal-1 to ASF-coated plates; mean values
Catalogue of compounds with associated IC50
Provide only the numeric value, understood in nM.

Below, 5 compounds whose answers are already recorded.
compound=CO[C@@H]1[C@@H](n2cc(-c3cc(F)c(F)c(F)c3)nn2)[C@@H](O)[C@@H](CO)O[C@H]1C(=O)N(c1cc(Br)ccc1C)[C@H]1CCCC[C@@H]1O attribute_measured=IC50 unit_of_measurement=nM measured_result=100
compound=COc1cc(F)cc(N(C(=O)[C@@H]2O[C@H](CO)[C@H](O)[C@H](n3cc(-c4cc(F)c(F)c(F)c4)nn3)[C@H]2OC)[C@H]2CCCC[C@@H]2O)c1 attribute_measured=IC50 unit_of_measurement=nM measured_result=1480
compound=CO[C@@H]1[C@@H](n2cc(-c3cc(F)cc(Br)c3)nn2)[C@@H](O)[C@@H](CO)O[C@H]1C(=O)N(c1cc(Cl)cc(Cl)c1)[C@H]1CCCC[C@@H]1O attribute_measured=IC50 unit_of_measurement=nM measured_result=726
compound=CO[C@@H]1[C@@H](n2cc(-c3cc(F)cc(F)c3)nn2)[C@@H](O)[C@@H](CO)O[C@H]1C(=O)N(c1cccc(Br)c1)[C@H]1CCCC[C@@H]1O attribute_measured=IC50 unit_of_measurement=nM measured_result=1900
compound="CO[C@@H]1[C@@H](n2cc(-c3cc(F)c(F)c(F)c3)nn2)[C@@H](O)[C@@H](CO)O[C@H]1C(=O)N(Cc1cccc(Cl)c1)[C@H]1CCCC[C@@H]1O [Example 53]" attribute_measured=IC50 unit_of_measurement=nM measured_result=10800

**Query** Query for human Gal-1 (hGal-1): what IC50 does the record show for CO[C@@H]1[C@@H](n2cc(-c3cc(F)c(F)c(F)c3)nn2)[C@@H](O)[C@@H](CO)O[C@H]1C(=O)N(c1ccc(F)c(Cl)c1)[C@H]1CCCC[C@@H]1O ?
**Result** 358

**Query** Next up: O=C([C@@H]1O[C@H](CO)[C@H](O)[C@H](n2cc(-c3ccc(Br)c(F)c3)nn2)[C@H]1O)N(Cc1ccccc1C(F)(F)F)[C@H]1CCCC[C@@H]1O
**Result** 615

**Query** Same again, this time with CO[C@@H]1[C@@H](n2cc(-c3cc(F)c(F)c(F)c3)nn2)[C@@H](O)[C@@H](CO)O[C@H]1C(=O)N(Cc1cccnc1C(F)(F)F)[C@H]1CCCC[C@@H]1O
**Result** 338

**Query** Please answer likewise for CO[C@@H]1[C@@H](n2cc(-c3cc(F)cc(Cl)c3)nn2)[C@@H](O)[C@@H](CO)O[C@H]1C(=O)N(c1cccc(Br)c1)[C@H]1CCCC[C@@H]1O
**Result** 935
